Tested on: NCI-H460 lung
protocol_notes: NCI tumour cell line growth inhibition, 48 h
reported_metric: TGI

Problem: For the compound shown here, Cc1ccc2c(c1)nc(C(=O)c1ccco1)c(C(F)(F)F)[n+]2[O-] , give the reported TGI.
Solution: > 100 µM

Problem: Return reported TGI; argument: Cc1cc2nc3c(N)nn(CCN(C)C)c3nc2cc1C
Solution: > 100 µM

Problem: Consider the compound shown here: C(=N\Nc1ccccn1)/c1ccccn1 What is its recorded TGI?
Solution: 3.98 µM

====

Tested on: SN12C renal
protocol_notes: NCI tumour cell line growth inhibition, 48 h
reported_metric: TGI

# count of solved cases: 6
COc1ccc(OC)c(-c2cn3c(n2)sc2ccccc23)c1	> 100 µM
O=C1/C(=C/C=C/c2ccccc2)CCC1CNc1ccc(Br)cc1 (stereo not drawn)	> 100 µM
O=C(O)c1cc(Nc2c(O)c3c(c(O)c2Cl)C(=O)C=CC3=O)ccc1O	> 10 µM
CC1Cc2c(cc(N)nc2Br)NC1=O (stereo not drawn)	> 100 µM
CCOP(=O)(OCC)C(NC(c1ccccc1)c1ccccc1)c1ccccc1 (stereo not drawn)	32.6 µM
Cc1ccccc1-c1c(N)nc(NC#N)nc1C(=O)Nc1ccccc1	> 100 µM

Problem: # get_value(readout='TGI', item= Clc1ccc(Cl)c2[s+]snc12 )
Solution: > 100 µM

Problem: Suppose we examine the compound C=C1[C@@H](C)[C@H]2[C@H](Cc3ccccc3)NC(=O)[C@]23OC(=O)/C=C/[C@H](O)CCC[C@@H](C)C/C=C/[C@H]3[C@@H]1O ; what TGI value has been reported?
Solution: > 100 µM

====

Test system: SW-620 colon
protocol_notes: NCI tumour cell line growth inhibition, 48 h
// values below are reported TGI

Study these solved cases before continuing.
Oc1ccc(Cc2ccc(O)c3ncccc23)c2cccnc12	> 100 µM
COC(=O)NC(Nc1ccc(C)cc1)(C(F)(F)F)C(F)(F)F	> 100 µM
NNc1nnc(-c2ccccc2)nc1Cc1ccccc1	> 100 µM
[Cl][Bi]([O]c1ccccn1)[O]c1ccccn1	> 100 µM
CCOC(=O)/C(C1=N[C@H](C(=O)OCC)CS1)=C(\O)c1ccccc1	> 100 µM

Problem: Can you share its TGI? I mean this compound: CCCC(CC)c1cc(O)c(O)cc1C(CC)CCC (stereo unspecified)
Solution: > 10 µM

Problem: Endpoint output: TGI of CC(C)NCCNC(=O)c1ccccc1Nc1c(Cl)cccc1Cl . Value?
Solution: 30.4 µM

Problem: Please look up its TGI: Cc1ccc(C(=O)Nc2ccc(CN3CCN(C)CC3)c(C(F)(F)F)c2)cc1C#Cc1cnc(N)cc1C#N
Solution: 1.15 µM

Problem: Reported TGI, compound O=C1/C(=C(/Br)I)c2ccccc2-c2ccccc21 : ____
Solution: 8.12 µM

Problem: Give the measured TGI of Cn1c(=O)[nH]n(-c2ccc3ccccc3c2)c1=O .
Solution: > 100 µM

Problem: If you can, please state the reported TGI value of C/C(=N/S(=O)(=O)c1ccc(Cl)c(Cl)c1)OCC(C)(C)C .
Solution: > 100 µM

====

Test system: HT29 colon
protocol_notes: NCI tumour cell line growth inhibition, 48 h
In this section, each of the compounds is paired with its reported TGI.

Example compounds with recorded TGI:
c1ccc2c(c1)ccc1c3ccccc3c(NCCCCN3CCCCC3)cc21	> 100 µM
CC[C@]1(O)CC2CN(CCc3c([nH]c4ccccc34)[C@@](C(=O)OC)(c3cc4c(cc3OC)N(C)[C@H]3[C@@](O)(C(=O)OC)[C@H](OC(C)=O)[C@]5(CC)C=CCN6CC[C@]43[C@@H]65)C2)C1 (some centres undefined)	5.18 µM
O=c1c2ccccc2c2ccccc2c(=O)n1-c1cc2c3ccccc3ccc2c2ccccc12	> 100 µM

Now take the following compound into account.
Problem: Given O=C1/C(=C/C=C/c2ccccc2)CCC1CNc1ccc(Br)cc1 (centres undefined) , state its recorded TGI.
Solution: > 100 µM

// data source = PubChem BioAssay (NCI)
